# tested_system: endopeptidase 24-16 (Homo sapiens, UniProt Q9BYT8)
# Sequence (Q9BYT8 38-704): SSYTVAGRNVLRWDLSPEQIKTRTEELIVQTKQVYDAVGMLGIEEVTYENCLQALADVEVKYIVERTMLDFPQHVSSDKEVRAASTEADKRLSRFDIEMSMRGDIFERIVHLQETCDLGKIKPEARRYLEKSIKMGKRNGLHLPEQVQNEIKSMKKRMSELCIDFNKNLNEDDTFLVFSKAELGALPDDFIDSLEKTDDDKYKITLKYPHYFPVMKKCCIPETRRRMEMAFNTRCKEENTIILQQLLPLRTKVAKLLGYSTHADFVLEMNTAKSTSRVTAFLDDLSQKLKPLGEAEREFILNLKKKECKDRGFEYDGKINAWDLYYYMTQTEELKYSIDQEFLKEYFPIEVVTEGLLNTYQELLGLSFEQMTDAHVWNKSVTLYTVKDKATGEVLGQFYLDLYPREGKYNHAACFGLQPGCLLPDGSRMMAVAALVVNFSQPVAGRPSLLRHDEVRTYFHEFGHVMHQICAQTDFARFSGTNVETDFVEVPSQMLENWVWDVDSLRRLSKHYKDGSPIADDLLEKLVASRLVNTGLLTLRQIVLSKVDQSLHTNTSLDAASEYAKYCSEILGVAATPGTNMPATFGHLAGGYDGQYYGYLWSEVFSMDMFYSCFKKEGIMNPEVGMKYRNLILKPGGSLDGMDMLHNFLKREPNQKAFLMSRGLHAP
# test_description: Inhibition of neurotensin degradation by purified endopeptidase 24-16 (HPLC), inhibition constant Ki
# condition_context: neurotensin 20 μmole/l, 1 hour at 30° C., tris-HCl pH 7.5
# Description: This example studies the inhibiting effect of the peptides of the invention with respect to endopeptidase 24-16. To this end, incubation takes place for 1 hour at 30° C. of 2 nmole (20 μmole/l) of neurotensin, which is a known endopeptidase 24-16 substrate with 8 μg of endopeptidase 24-16 purified in a final volume of 100 μl of tris-HCl buffer, 50 mM, pH 7.5, in the absence of peptide (control) or in the presence of the peptide tested at concentrations from 10^-11 to 10^-7 mole/l. […]
Reported pKi is given for each of the following molecules.
On this scale, pKi is minus log10 of a concentration expressed in M (mol/L).

// known answers, use as guide
molecule: CCCC[C@H](NC(=O)[C@H](CCCNC(=N)N)NC(=O)CCP(=O)(O)C(Cc1ccccc1)NC(=O)OCc1ccccc1)C(=O)O (mixture of isomers)
pKi: 6.67

molecule: CSCC[C@H](NC(=O)[C@H](CCCNC(=N)N)NC(=O)CCP(=O)(O)C(Cc1ccccc1)NC(=O)OCc1ccccc1)C(=O)O (mixture of isomers)
pKi: 6.88

molecule: N=C(N)NCCC[C@H](NC(=O)[C@H](CCCNC(=N)N)NC(=O)CCP(=O)(O)C(Cc1ccccc1)NC(=O)OCc1ccccc1)C(=O)O (mixture of isomers)
pKi: 5.69

molecule: CC(CP(=O)(O)C(Cc1ccccc1)NC(=O)OCc1ccccc1)C(=O)N[C@@H](CCCCN)C(=O)N[C@@H](C)C(=O)O (mixture of isomers)
pKi: 6.36

molecule: CC(C)C[C@H](NC(=O)[C@H](CCCCN)NC(=O)C(C)CP(=O)(O)C(Cc1ccccc1)NC(=O)OCc1ccccc1)C(=O)O (mixture of isomers)
pKi: 6.05

Below: the item to evaluate.
Exercise: Look up pKi for this molecule: N=C(N)NCCC[C@H](NC(=O)CCP(=O)(O)C(Cc1ccccc1)NC(=O)OCc1ccccc1)C(=O)N[C@@H](CCC(N)=O)C(=O)O (mixture of isomers)
Solution: 6.16
